tested on: HCT-15 colon; experiment: NCI tumour cell line growth inhibition, 48 h; in the data active = GI50 below about 0.43 µM; inactive = the rest
Could you please pick one outcome from this set? active, inactive

**Q:** Called result for O=C(/C=C/N1CCN(c2cccc(C(F)(F)F)c2)CC1)c1ccc(Cl)cc1Cl
**A:** inactive

**Q:** Called result for Cc1ccc(C2=Nc3c(N)ncnc3NC(c3cccc(Nc4ccnc5cc(C(F)(F)F)ccc45)c3)C2)cc1 (stereo not drawn)
**A:** inactive

**Q:** Called result for COC(=O)c1cc(Nc2ccc(O)c3c2C(=O)c2c([N+](=O)[O-])ccc(O)c2C3=O)cc(C(=O)OC)c1
**A:** inactive

**Q:** Called result for C[C@@H](NC(=O)Cc1cc(F)cc(F)c1)C(=O)N[C@@]1(C)N=C(c2ccccc2)c2ccccc2N(C)C1=O
**A:** inactive

**Q:** Called result for COc1ccc(C2=CC(c3cc(OC)c(OC)c(OC)c3)n3ncnc3N2)cc1 (stereo not drawn)
**A:** active

**Q:** Called result for CCOC(=O)c1[nH]c2c(c1C)-c1[nH]c(=O)c(S(=O)(=O)c3ccccc3)cc1SC2
**A:** inactive

**Q:** Called result for COC(=O)[C@H](Cc1ccccc1)NC(=O)c1csc([C@@H](C[C@H](C(C)C)N(C)C(=O)[C@@H](NC(=O)[C@H]2CCCCN2C)C2CC2)OC(C)=O)n1
**A:** active

**Q:** Called result for c1ccc2c(c1)nc(NCCN1CCNCC1)c1c3ccccc3[nH]c21
**A:** active

###

TGI values for the compounds below.
tested on: U251 CNS; test: NCI tumour cell line growth inhibition, 48 h

Below, 2 compounds whose answers are already recorded.
>>> value("O=C1[C@H]2C(c3ccccc3)=NN(C(=O)c3ccccc3)[C@H]2C(=O)N1c1ccccc1")
"> 100 µM"
>>> value("Nc1ncnc2occ(-c3ccc(NC(=O)Nc4cc(C(F)(F)F)cc(C(F)(F)F)c4)cc3)c12")
"6.64 µM"

**Q:** Lab note: need TGI with U251 CNS for entry Cc1cc(N(CCC#N)S(=O)(=O)c2ccccc2)ccc1C=O , please look it up.
**A:** > 100 µM

**Q:** Lab note: need TGI with U251 CNS for entry CN1CC2(CCCCC2)C(O)C12C=CCCC2 (configuration not stated) , please look it up.
**A:** > 100 µM

**Q:** Lab note: need TGI with U251 CNS for entry Brc1ccc2c(c1)C1(c3cc(Br)ccc3-2)c2cc(Br)ccc2-c2ccc(Br)cc21 , please look it up.
**A:** > 100 µM

**Q:** Lab note: need TGI with U251 CNS for entry O=C1CCC2(CCC(=O)NC2=O)C(=O)N1 , please look it up.
**A:** > 100 µM

**Q:** Lab note: need TGI with U251 CNS for entry CSc1c(C(C)=O)c(O)n(-c2ccc(Cl)cc2)c(=O)c1C#N , please look it up.
**A:** > 100 µM

**Q:** Lab note: need TGI with U251 CNS for entry COC(=O)c1cc(Nc2ccc(O)c3c2C(=O)c2c([N+](=O)[O-])ccc(O)c2C3=O)cc(C(=O)OC)c1 , please look it up.
**A:** > 100 µM

**Q:** Lab note: need TGI with U251 CNS for entry CCOC(=O)c1[nH]c2c(c1C)-c1[nH]c(=O)c(S(=O)(=O)c3ccccc3)cc1SC2 , please look it up.
**A:** > 100 µM

**Q:** Lab note: need TGI with U251 CNS for entry O=C(c1cccs1)N(C(=S)N1CCN(c2ccccc2)CC1)c1ccccc1 , please look it up.
**A:** > 100 µM

**Q:** Lab note: need TGI with U251 CNS for entry CC(C)(CN1CCCCC1)C(=O)CC(SCCS(=O)(=O)O)c1ccc(Br)cc1 (configuration not stated) , please look it up.
**A:** 3.16 µM

**Q:** Lab note: need TGI with U251 CNS for entry O=C1CCC2(CC1)Cc1ccccc1C2O (configuration not stated) , please look it up.
**A:** > 100 µM

**Q:** Lab note: need TGI with U251 CNS for entry CCCCCCCCCCCCOC1C(COCCN2CCCC2)OC2OC(C)(C)OC21 (configuration not stated) , please look it up.
**A:** 3.12 µM

**Q:** Lab note: need TGI with U251 CNS for entry NC(N)=N/N=C(\c1ccc(Cl)cc1)C1CC1 , please look it up.
**A:** 27.2 µM

**Q:** Lab note: need TGI with U251 CNS for entry c1ccc(SCCCC(Sc2ccccc2)Sc2ccccc2)cc1 , please look it up.
**A:** > 100 µM

**Q:** Lab note: need TGI with U251 CNS for entry Cc1cc(CS(=O)(=O)/C=C/c2ccccc2[N+](=O)[O-])c(CS(=O)(=O)/C=C/c2ccccc2[N+](=O)[O-])cc1C , please look it up.
**A:** 71.3 µM

**Q:** Lab note: need TGI with U251 CNS for entry c1ccc2c(c1)nc(NCCN1CCNCC1)c1c3ccccc3[nH]c21 , please look it up.
**A:** 1.94 µM
